All figures here come from PubChem BioAssay (NCI).

System: HCT-116 colon
Method Summary: NCI-60 one-dose screen, 48 h (100 = growth as untreated, 0 = no growth, -100 = all killed)
Settings: 10 µM unless noted
Compounds without any hit were thinned out: in the full panel of roughly 83,000, 20% have a hit.
The following compounds are listed with their measured growth values.
Quantity Kind: growth (%)

compound=Cc1nccc2c3ccc(OCc4cn(Cc5ccc(Br)cc5)nn4)cc3n(CCCc3ccccc3)c12 numeric_result=63.6
compound=O=C(CSc1nnc(-c2ccccc2)o1)Nc1ccc(C(=O)/C=C/c2ccccc2)cc1 numeric_result=-2.15
compound=COc1cccc(-c2nc3sccn3c2-c2ccnc(NCCNC(=O)Nc3cccc(C(F)(F)F)c3)n2)c1 numeric_result=44.6
compound=CNC(=O)NN numeric_result=93.6
compound=CCCCOc1c(N)cc(Cl)cc1C(=O)OCCN(CC)CC numeric_result=80.3
compound=CSc1ccc(C(=O)C[n+]2cccc(C)c2)cc1 numeric_result=101
compound="CCCCCCCCN(CCCCCCCC)CC(O)c1cc(-c2ccccc2)nc2ccc(OC)cc12 (stereo not given)" numeric_result=8.32
compound=O=C(N/N=C/c1ccccc1O)c1ccccc1O numeric_result=26.7
compound=C/C(=N/O)c1ccc(NC(=O)Cn2nc(-c3ccc(Cl)cc3)nc2N)cc1 numeric_result=107
compound=O=C(Nc1ccc(-n2cc(-c3ccncc3)c(-c3ccc(O)c(Cl)c3)n2)cc1)Nc1cccc(Cl)c1Cl numeric_result=36.8
compound=C/C(=N/NC(=O)Cn1c2ccccc2c2ccncc21)c1cccs1 numeric_result=100
compound="CC(C(C(=O)N1CCCCC1)N1CCCCC1)N1CCCCC1 (stereo not given)" numeric_result=97
compound=CCCCCCCCCCCCCCCCCCNCc1ccc(Cl)cc1 numeric_result=-74.5
compound=CCCC(=O)Oc1ccc(/C(=C(\C)c2ccc(Cl)cc2)c2ccc(OCCN(CC)CC)cc2)cc1 numeric_result=-86.7
compound=NS(=O)(=O)c1ccc(Nc2nc(O)c(/C=C3\C=Nc4ccccc43)s2)cc1 numeric_result=92.7
compound=COc1ccccc1NC(=O)COc1ccc(/C=C2/Oc3cc4occc4c(OC)c3C2=O)cc1OC numeric_result=102
compound="COCCNC(C(=O)c1ccccc1)c1ccccc1 (stereo not given)" numeric_result=99.9
compound="CC(=O)N1N=C2N(Cc3ccccc3)C(=O)c3c(sc4c3CCCC4)N2C1c1cn(-c2ccccc2)nc1-c1ccc(Cl)cc1 (stereo not given)" numeric_result=96.8
compound=CC(C)CNCC(=O)Nc1ccc(Cc2ccc(NC(=O)CNCC(C)C)cc2)cc1 numeric_result=36.4
compound=C[C@]12CC[C@@H]3c4ccc(O)c(N)c4CC[C@H]3[C@@H]1CC[C@@H]2O numeric_result=89.9
compound=Cc1cccc(Cc2cnc(NC(=O)CCc3ccc(C)o3)s2)c1 numeric_result=11.5
compound=COc1ccc2c(c1)nnn1c3ncccc3c(N=O)c21 numeric_result=-86
compound=CC[C@H]1[C@@H]2C=C[C@@H]3[C@H]4C/C=C\C(=O)NCCC[C@@H]5NC(=O)/C(=C(O)/C=C/[C@@H]4C[C@@H]3[C@H]2C[C@H]1C)C5=O numeric_result=-11.8
compound=O=C1c2ccccc2C(=O)c2c(NCCN=Cc3c(O)ccc4ccccc34)cccc21 numeric_result=45.5
compound=COc1ccc(/C=C2\CS(=O)(=O)C/C(=C\c3ccc(OC)cc3)C2=O)cc1 numeric_result=-83.2
compound="COC1OCC(OS(=O)(=O)c2ccc(C)cc2)C(OC(=O)c2ccccc2)C1OC(=O)c1ccccc1 (stereo not given)" numeric_result=32.4
compound="COc1cccc(C2CC(c3cc(OC)c(OC)c(OC)c3)=NN2)c1 (stereo not given)" numeric_result=66.5
compound=O=C(Nc1ccc(-n2ccc3c(NC(=O)c4ccccc4)nccc32)cc1)c1ccc(Cl)c(C(F)(F)F)c1 numeric_result=-92.4
compound=COc1ccc(-c2nn(-c3cccc(Cl)c3)cc2-c2cc(-c3ccc(Br)cc3)[nH]c(=O)c2C#N)cc1 numeric_result=79.7
compound=CC1=C2C(=C[C@@](C)(CO)[C@@H]2OC(=O)N(C)CCN(C)C(=O)OC(C)(C)C)C(=O)[C@](C)(O)C12CC2 numeric_result=15.9
compound=O=S(=O)(Nc1cccc2cc(OS(=O)(=O)c3ccccc3)ccc12)c1ccccc1 numeric_result=25.4
compound="COc1ccc(C2=NN(C(=O)COc3ccc(Cl)cc3)C(O)(c3cc(F)c(Cl)cc3Cl)C2)cc1 (stereo not given)" numeric_result=86.4
compound=O=[N+]([O-])c1cccc(C2c3ccccc3Oc3ccccc32)c1 numeric_result=68.3
compound=O=C1CCC(=O)N1C1CCCCC1 numeric_result=99
compound=Cc1ncc(CO)c(C(=O)O)c1O numeric_result=78
compound=c1ccc2c(c1)Oc1cccnc1-n1nccc1-2 numeric_result=104
compound=CO[C@H]1/C=C/C=C/C=C/C[C@H](OC(=O)[C@@H](C)NC(=O)C2CCCCC2)[C@H](C)[C@@H](O)/C(C)=C\CCC2=CC(=O)C=C(NC(=O)C1)C2=O numeric_result=-18.4
compound=O=C(Nc1cccc(-n2ccc3c(NC(=O)c4ccccc4)nccc32)c1)Nc1ccc(Cl)c(C(F)(F)F)c1 numeric_result=3.34
compound=COc1ccc2c(c1)C(=O)/C(=C/c1cccc(OCC(=O)c3ccccc3)c1)O2 numeric_result=0.433
compound=CNCCCOc1c(Br)cc(CCNC(=O)/C(Cc2cc(Br)c(OC)c(Br)c2)=N/O)cc1Br numeric_result=-91.6

====

System: TK-10 renal
Method Summary: NCI-60 one-dose screen, 48 h (100 = growth as untreated, 0 = no growth, -100 = all killed)
Settings: 10 µM unless noted
About 83,000 compounds went through this panel and 20% of them were active in at least one assay; those are over-represented in the sample as a whole.
The following molecules are listed with their measured growth values.
Quantity Kind: growth (%)

given_smiles=Clc1ccc2c(c1)nnn1c3ncccc3c(Br)c21 quantity_kind=growth measurement_units=% numeric_result=78.8
given_smiles=CCc1cccc(C)c1NC(=O)c1sc2nc3c(cc2c1N)CCCCC3 quantity_kind=growth measurement_units=% numeric_result=66.7
given_smiles=CCOC(=O)c1cnc2c(OC)ccc(OC)c2c1Cl quantity_kind=growth measurement_units=% numeric_result=106
given_smiles=Clc1ccc(CN2COc3c(ccc4cccnc34)C2)cc1Cl quantity_kind=growth measurement_units=% numeric_result=25.9
given_smiles=CN(C)CCCOc1c(Br)cc(/C=C/C(=O)N(C)CCc2cc(Br)c(OCCCN(C)C)c(Br)c2)cc1Br quantity_kind=growth measurement_units=% numeric_result=106
given_smiles=O=C(C[n+]1ccccc1Cl)c1ccc2c(c1)CCCC2 quantity_kind=growth measurement_units=% numeric_result=92.8

====

System: DU-145 prostate
Method Summary: NCI-60 one-dose screen, 48 h (100 = growth as untreated, 0 = no growth, -100 = all killed)
Settings: 10 µM unless noted
This is part of a sample that, as a whole, favours compounds with a hit. Of some 83,000 tested, about 20% had one in any assay.
The following compounds are listed with their measured growth values.
Quantity Kind: growth (%)

compound=O=C(Nc1ccc(Cl)c(Cl)c1)Nc1ccc(Cl)c([N+](=O)[O-])c1 numeric_result=18
compound=C=C1C(=O)O[C@H]2[C@H]1CC/C(COC(=O)c1ccc(Cl)nc1)=C\CC[C@@]1(C)O[C@@H]21 numeric_result=12.4
compound="CCC1(C(N)=O)CC2C=CC1CC2 (stereo not given)" numeric_result=116
compound=Cc1cccc(NCS(=O)(=O)O)c1 numeric_result=112
compound="CN1C(=O)C2(SCC(C(=O)NCC(=O)OC(C)(C)C)N2C(=O)C2CCCCC2)c2ccccc21 (stereo not given)" numeric_result=105
compound=CCN(CC)C(=O)C1CCN(C(=O)c2ccccc2)CC1 numeric_result=109
compound=NN=C(c1ccc(Cl)cc1)c1ccc(Cl)cc1 numeric_result=116
compound=CN(C)CCS(=O)(=O)Nc1cc(-c2ccc3ncnc(Nc4ccc(F)c(Cl)c4)c3c2)cnc1Cl numeric_result=-3.31
compound=COc1ccc(OC)c(NCC(=O)n2nc(/C=C\c3ccc(O)c(OC)c3)cc2/C=C\c2ccc(O)c(OC)c2)c1 numeric_result=22.9
compound=COc1cc2ncn3c(=O)c4c5c(sc4nc3c2cc1OC)CCCCC5 numeric_result=111

====

Tested on: OVCAR-5 ovarian
Method Summary: NCI-60 one-dose screen, 48 h
Settings: 10 µM unless noted
Procedure: Growth inhibition of the OVCAR-5 human tumor cell line is measured as a screen for anti-cancer activity. Cells are grown in 96 well plates and exposed to the test compound for 48 hours. Compounds are tested at a single concentration, which is 10^-5 M for most compounds. The reported endpoint is percent growth (GI% or GIPRCNT), where numbers from 0 - 100% represent growth inhibition, and numbers from -100% - 0 represent cell death. For example, a value of 40 represents 60% growth inhibition. […]
Compounds without any hit were thinned out: in the full panel of roughly 83,000, 20% have a hit. Activity calls are given as the source filed them. The calls were made as follows: active = growth percent below 10; inactive = the rest.
Possible outcomes: active, inactive

compound=FC(F)(F)c1cccc([Si](F)(c2cccc(C(F)(F)F)c2)c2cccc(C(F)(F)F)c2)c1 group_label=inactive
compound=COc1ccc(N)c(S)c1 group_label=inactive
compound=COC(=O)c1oc2c(C(=O)/C=C/c3ccc(OC)cc3)c(OCCN3CCOCC3)ccc2c1C group_label=inactive
compound=Nc1ncnc2c1ccn2-c1cccc(NC(=O)c2cccc(C(F)(F)F)c2)c1 group_label=inactive
compound=Fc1cccc(F)c1C#Cc1ccc2cccnc2c1 group_label=inactive
compound=Cc1nccc2c3ccc(OCc4cn(Cc5ccc(Br)cc5)nn4)cc3n(CCCc3ccccc3)c12 group_label=inactive
compound=NC(=S)NNC1CCCCC1 group_label=inactive
compound="NC(CCCC(N)C(=O)c1ccccc1)C(=O)O (stereo not drawn)" group_label=inactive
compound=Nc1nccc2c1ccn2-c1ccc(NC(=O)Nc2cccc(C(F)(F)F)c2)cc1 group_label=inactive
compound=O=C(Nc1cccc(-n2ccc3c(NC(=O)c4ccccc4)nccc32)c1)c1cc(N2CCOCC2)cc(C(F)(F)F)c1 group_label=inactive
compound=CN(C)c1ccc(/C=c2\s/c(=C\C(=O)C(C)(C)C)[nH]c2=O)cc1 group_label=inactive
compound="CCC(N)(C(=O)O)c1ccc(F)cc1 (stereo not drawn)" group_label=inactive
compound=CC(C)(C)C(=O)/C=c1/[nH]c(=O)/c(=C/c2ccccc2O)s1 group_label=inactive
compound=CN(C)C(=O)Nc1nc2cc(Cl)c(Cl)cc2[nH]1 group_label=inactive
compound=Nc1ncc(-c2ccc3ncnc(Nc4ccc(F)c(Cl)c4)c3c2)cn1 group_label=inactive
compound=COc1cc(C(=O)N2CCN(C(=O)c3cc(OC)c(OCc4ccccc4)cc3N)CC2)c(N)cc1OCc1ccccc1 group_label=inactive
compound=COc1ccc(-c2nn(-c3ccc(NC(=O)c4cc(Cl)cc(Cl)c4)cc3)cc2-c2ccncc2)cc1Cl group_label=inactive
compound=COc1ccc(-c2c(C#N)cnc(N)c2-c2nc3cc(C)c(C)cc3[nH]2)cc1 group_label=inactive
compound=COc1ccc(/C=C/C(=O)c2ccc(NC(=O)CSc3nnc(-c4cc(OC)c(OC)c(OC)c4)o3)cc2)cc1 group_label=active
compound=COc1cc2ncnc(Oc3ccc(NC(=O)Nc4ccc(CN5CCOCC5)c(C(F)(F)F)c4)c4ccccc34)c2cc1OC group_label=inactive
compound=CO[C@H]1/C=C/C=C/C=C/C[C@H](OC(=O)[C@@H](C)NC(=O)C2CCCCC2)[C@H](C)[C@@H](O)/C(C)=C\CCC2=CC(=O)C=C(NC(=O)C1)C2=O group_label=active
compound=CCc1cccc(C)c1NC(=O)c1sc2nc3c(cc2c1N)CCCCC3 group_label=inactive
compound=CC(C)Cn1cnc2c3ccccc3nc(NCn3nc(-c4cc(Cl)cc(Cl)c4Cl)oc3=S)c21 group_label=inactive
compound=CC(=O)CC/C=C(\C)[C@H](O)[C@H](C)C(=O)O[C@H]1C[C@H](C)C=C2C=C[C@@]3(C)O[C@@H](O)CC(=O)[C@]3(C)[C@H]21 group_label=active
compound=CNCCCOc1c(Br)cc(CCNC(=O)/C(Cc2ccc(OC)c(Br)c2)=N/O)cc1Br group_label=inactive
compound=CN[C@@H](CCCNC(N)=NC/C=C(/C)CCC=C(C)C)C(=O)N(C)[C@@H](CCCNC(N)=NCC=C(C)C)C(=O)N[C@H](C)[C@H](OS(=O)(=O)O)c1ccc(OS(=O)(=O)O)c(COS(=O)(=O)O)c1 group_label=inactive
compound=CN(C)CCNc1nc2ccccc2c2c(=O)c3ccccc3sc12 group_label=inactive
compound=Nn1c(CN2CCN(c3cc4c(cc3F)c(=O)c(C(=O)O)cn4C3CC3)CC2)n[nH]c1=S group_label=inactive
compound=Cc1cc(SCc2ccc(Cl)cc2Cl)nc(SCc2ccc(Cl)cc2Cl)n1 group_label=inactive
compound=COc1ccc(Cl)cc1NC(=O)c1cc2c(n1C)-c1nc(NC(=O)C(C)C)sc1CC2 group_label=inactive
compound=CN1CCN(C(=O)/C=C/c2ccc([N+](=O)[O-])o2)CC1 group_label=inactive
compound=O=C(Cn1c2ccccc2c2ccncc21)N/N=C/c1cc(O)c(O)c(O)c1 group_label=inactive
compound=O=[N+]([O-])c1ccccc1NC1c2ccccc2Oc2ccccc21 group_label=inactive
compound=COc1ccc(-c2nnc(SCC(=O)Nc3ccc(C(=O)/C=C/c4ccccc4)cc3)o2)cc1OC group_label=inactive
compound="COc1ccc(C2=NN(C(=O)COc3ccc(Cl)cc3)C(O)(c3cc(F)c(Cl)cc3Cl)C2)cc1 (stereo not drawn)" group_label=inactive
compound=COc1ccc(-c2nnc(SCC(=O)Nc3ccc(C(=O)/C=C/c4ccc(OC)c(OC)c4)cc3)o2)cc1 group_label=inactive
compound=COC(=O)c1ccc(NC(N)=NCC(C)(C)COc2ccc(C(F)(F)F)cc2)nc1 group_label=inactive
compound=COc1cc(-c2nc(N)n(CC(=O)Nc3ccc(/C(C)=N\O)cc3)n2)cc(OC)c1OC group_label=inactive
